Assay: Multiple Ascending Dose (MAD) study, pharmacokinetics in healthy volunteers
Type: in vivo, human
Conditions: human, in vivo, oral, 8 mg, 8 mg QD, Day 7, n = 7; arithmetic mean; read-out: AUCtau/AUC0-24hr
quantity: AUC(0-t) (ng·h/mL)

{"columns": ["record smiles", "units", "reported value"],
 "data": [
  ["[2H]C1([2H])C([C@@H](CC#N)n2cc(-c3ncnc4[nH]ccc34)cn2)C([2H])([2H])C([2H])([2H])C1([2H])[2H]", "ng·h/mL", 668]
]}

---

Assay: Single Ascending Dose (SAD) study, pharmacokinetics in healthy volunteers
Assay type: in vivo, human
Details: human, in vivo, oral; single dose 8 mg as phosphate salt, fasted, n = 6; median

{"columns": ["record smiles", "Tmax (h)"],
 "data": [
  ["[2H]C1([2H])C([C@@H](CC#N)n2cc(-c3ncnc4[nH]ccc34)cn2)C([2H])([2H])C([2H])([2H])C1([2H])[2H]", 1.25]
]}

---

Experiment: Single Ascending Dose (SAD) study, pharmacokinetics in healthy volunteers
Assay type: in vivo, human
Details: human, in vivo, oral; single dose 16 mg as phosphate salt, fasted, n = 6; arithmetic mean; read-out: AUC0-24hr
quantity: AUC(0-t) (ng·h/mL)

{"columns": ["record smiles", "quantity", "reported value"],
 "data": [
  ["[2H]C1([2H])C([C@@H](CC#N)n2cc(-c3ncnc4[nH]ccc34)cn2)C([2H])([2H])C([2H])([2H])C1([2H])[2H]", "AUC(0-t)", 1330]
]}

---

Assay: Multiple Ascending Dose (MAD) study, pharmacokinetics in healthy volunteers
Assay type: in vivo, human
Details: human, in vivo, oral, 24 mg, 24 mg QD, Day 1, n = 8; arithmetic mean; read-out: C24hr
quantity: concentration at 24 h (ng/mL)

{"columns": ["compound", "reported value"],
 "data": [
  ["[2H]C1([2H])C([C@@H](CC#N)n2cc(-c3ncnc4[nH]ccc34)cn2)C([2H])([2H])C([2H])([2H])C1([2H])[2H] [Compound (I)]", 2.48]
]}

---

Assay: Multiple Ascending Dose (MAD) study, pharmacokinetics in healthy volunteers
Type: in vivo, human
Settings: human, in vivo, oral, 8 mg, 8 mg QD, Day 1, n = 7; arithmetic mean; read-out: AUCtau/AUC0-24hr

{"columns": ["compound", "AUC(0-t) (ng·h/mL)"],
 "data": [
  ["[2H]C1([2H])C([C@@H](CC#N)n2cc(-c3ncnc4[nH]ccc34)cn2)C([2H])([2H])C([2H])([2H])C1([2H])[2H] [Compound (I)]", 704]
]}

---

Experiment: Multiple Ascending Dose (MAD) study, pharmacokinetics in healthy volunteers
Assay type: in vivo, human
Details: human, in vivo, oral, 32 mg, 32 mg QD, Day 7, n = 8; arithmetic mean; read-out: C24hr

{"columns": ["compound", "concentration at 24 h"],
 "data": [
  ["[2H]C1([2H])C([C@@H](CC#N)n2cc(-c3ncnc4[nH]ccc34)cn2)C([2H])([2H])C([2H])([2H])C1([2H])[2H] [Compound (I)]", "5.12 ng/mL"]
]}

---

Test: Multiple Ascending Dose (MAD) study, pharmacokinetics in healthy volunteers
Assay type: in vivo, human
Settings: human, in vivo, oral, 16 mg, 16 mg BID, Day 7, n = 8; arithmetic mean; read-out: C12hr
quantity: concentration at 12 h (ng/mL)

{"columns": ["molecule", "reported value"],
 "data": [
  ["[2H]C1([2H])C([C@@H](CC#N)n2cc(-c3ncnc4[nH]ccc34)cn2)C([2H])([2H])C([2H])([2H])C1([2H])[2H] [Compound (I)]", 16.5]
]}

Origin of measurements: patent US12076323B2
